All figures here come from paper PMC6008489.

So I've got a bunch of compounds here, and I need their melting point values.
Where a name gives a salt, the structure may show the parent alone.
Answers are plain numbers, in °C.

Look over these answered cases.
compound="O=C(Nc1cc(-c2ccncc2)c[nH]c1=O)c1ccc(N2CCCCC2)cc1 [Compound 23]" result_number=284
compound="Cn1cc(-c2c[nH]c(=O)c(N)c2)cn1 [Compound 2]" result_number=264
compound="Nc1cc(-c2cncnc2)c[nH]c1=O (as salt: sodium) [Compound 10]" result_number=240
compound="O=C(Nc1cc(-c2ccncc2)c[nH]c1=O)c1cc(F)cc(F)c1 [Compound 20]" result_number=293
compound="O=c1[nH]cc(-c2ccncc2)cc1NS(=O)(=O)c1ccccc1 [Compound 21]" result_number=289
compound="O=C(Nc1cc(-c2ccncc2)c[nH]c1=O)c1cccc(F)c1 [Compound 19]" result_number=292

Now turn to the next compound.
What value of melting point has been reported for the following compound? COc1cccc(C(=O)Nc2cc(-c3ccncc3)c[nH]c2=O)c1 [Compound 17]
287
